// provenance: ChEMBL document CHEMBL5608141

Test system: Colon cancer organoid
PROCEDURE DETAILS: Identification of compartment-specific drug sensitivities in O06 CRC organoid-stroma F06 CAF co-cultures. Organoid is transduced with Lucferase2-P2A-EGFP lentivirus, fibroblast with Renilla-dsRed lentivirus. Dual-Glo Luciferase assay is used to report viability data.
Format: functional, Homo sapiens
Design: dose or concentration left out as unconfirmed
CONDITIONS USED: Transduced with Renilla-dsRed lentivirus
VALUE KIND: Cell Viability (%)
// note: answer is a bare numeric in %

Input line: Test system Colon cancer organoid; read-out Cell Viability; what value for Cc1ccc2[nH]c(CNCCCc3ccncc3)cc(=O)c2c1 [UCSF924NC] ?
Output line: 82.507

Input line: What would you report for Cc1nccc(COC(=O)N2C[C@@H]3[C@@H](CNC(=O)c4ccc5[nH]nnc5c4)[C@@H]3C2)n1 ?
Output line: 89.1244

Input line: What would you report for CO[C@H]1CNC[C@@H](OCC2CCC(F)(F)CC2)[C@@H]1Nc1ncc(-c2cncc(C)c2)c2cc(C)c(=O)[nH]c12 ?
Output line: 138.476

Input line: What would you report for COc1cc(Nc2ccnc3ccc(Br)cc23)cc(OC)c1OC ?
Output line: 122.349

Input line: What would you report for CCN(Cc1ccc(Cl)cc1)c1ncc(C(=O)NCCCN2CCCC2=O)c(NC2CCCC2)n1 ?
Output line: 154.26

Input line: What would you report for CN(C)C(=O)c1sc2nc(N3CCC(S(C)(=O)=O)CC3)cc(C(F)(F)F)c2c1N ?
Output line: 103.89

Input line: What would you report for CC1(C)C(N)=Nc2cc(OCCCN3Cc4ccc(OCCc5cn(CC(=O)N6CCC(CCN7CCCC7)CC6)nn5)cc4C3)c(OCC3CC3)cc21 ?
Output line: 109.54

Input line: What would you report for Cc1c(Nc2ccc(S(=O)(=O)N3CCN(C)CC3)cc2F)nc2ccc(-c3cnn(C4CC4)c3)cn2c1=O ?
Output line: 138.146

Input line: What would you report for CCCc1cc(C)[nH]c(=O)c1CNC(=O)c1cc(-c2ccnc(N3CCN(C)CC3)c2)cc2c1cnn2C(C)C ?
Output line: 125.188

Input line: What would you report for CC(C)(O)[C@H](F)CN1Cc2cc(NC(=O)c3cnn4cccnc34)c(N3CCOCC3)cc2C1=O ?
Output line: 89.8431

Input line: What would you report for COc1cc(N2CCC(O)CC2)ccc1Nc1cc(Nc2ccccc2S(=O)(=O)C(C)C)c2cc[nH]c2n1 ?
Output line: 81.2438

Input line: What would you report for CNc1nc(-c2ccc3c(N)n[nH]c3c2)cc(N2C[C@@H](C(=O)NC3CCCCC3)CC[C@H]2C)n1 ?
Output line: 53.4401

Input line: What would you report for CNC(=O)c1ccc(Nc2ncc(C(F)(F)F)c(NCc3nccnc3N(C)S(C)(=O)=O)n2)cc1 ?
Output line: 427.019

Input line: What would you report for COc1ccccc1-c1cc(N2CCN(C(=O)OC(C)(C)C)CC2)c(N)nn1 ?
Output line: 102.712

Input line: What would you report for CN1CCN(Cc2ccc(Nc3ncc(Cl)c(Nc4ccccc4S(=O)(=O)N(C)C)n3)cc2)CC1 ?
Output line: 0.7151

Input line: What would you report for CN(C)C/C=C/C(=O)Nc1cc2c(Nc3ccc(F)c(Cl)c3)ncnc2cc1O[C@H]1CCOC1.O=C(O)/C=C\C(=O)O.O=C(O)/C=C\C(=O)O [AFATINIB DIMALEATE] ?
Output line: 56.3894

* * *

Tested on: Colon cancer organoid
PROCEDURE DETAILS: Identification of compartment-specific drug sensitivities in O20 CRC organoid-stroma F20 CAF co-cultures. Organoid is transduced with Lucferase2-P2A-EGFP lentivirus, fibroblast with Renilla-dsRed lentivirus. Dual-Glo Luciferase assay is used to report viability data.
Assay type: functional, Homo sapiens
Design: dose or concentration left out as unconfirmed
CONDITIONS USED: Transduced with Renilla-dsRed lentivirus
VALUE KIND: Cell Viability (%)
// note: answer is a bare numeric in %

Input line: Record request: Cell Viability value, item CC1=CC(C)=[N+]2C1=C(CCCCc1cn(CC(=O)N3CCc4nc(NC(=O)[C@H]5CCN(C#N)C5)sc4C3)nn1)c1c(C)cc(C)n1[B-]2(F)F
Output line: 101.216

Input line: What would you report for CNC(=O)c1ccccc1Nc1cc(Nc2ccc(N3CCOCC3)cc2OC)ncc1C(F)(F)F [VS-4718] ?
Output line: 72.4438

Input line: What would you report for CN1CCN(C(=O)C(C)(C)c2ccc(C(=O)Nc3cn4cc(-c5cc(C(C)(C)C)cc(C(C)(C)C)c5)ccc4n3)cc2)CC1 [T3-CLK-N] ?
Output line: 112.725

Input line: What would you report for Cc1nc(-c2cn3c(n2)-c2ccc(-c4cnn(C(C)(C)C(N)=O)c4)cc2OCC3)n(C(C)C)n1 [TASELISIB] ?
Output line: 146.008

Input line: What would you report for FC(F)(F)c1ccc2c(c1)nc(-c1cccnc1)n2C1CC1 [MSD-CYP11B2-Negative-control] ?
Output line: 114.7

Input line: What would you report for COc1cc2c(cc1NS(=O)(=O)c1ccc(Br)cc1C)n(C)c(=O)n2C ?
Output line: 193.757

Input line: What would you report for C[C@@H]1CN(c2cc(-c3nn(C)c4ccc(OC5(C)CC5)cc34)ncn2)C[C@H](C)O1 [MLi-2-NC] ?
Output line: 86.6644

* * *

Hi there, I'd appreciate the recorded Cell Viability for every entry that follows.
Test system: Colon cancer organoid
PROCEDURE DETAILS: Identification of compartment-specific drug sensitivities in O20 CRC organoid-stroma F20 CAF co-cultures. Organoid is transduced with Lucferase2-P2A-EGFP lentivirus, fibroblast with Renilla-dsRed lentivirus. Dual-Glo Luciferase assay is used to report viability data.
Type: functional, Homo sapiens
Design: dose or concentration left out as unconfirmed
CONDITIONS USED: Transduced with Lucferase2-P2A-EGFP lentivirus
// note: answer is a bare numeric in %

Input line: Record request: Cell Viability value, item CC(=O)NCC(=O)N1[C@@H]2CC[C@H]1c1ccc(Nc3ncc(C(F)(F)F)c(NC4CCC4)n3)cc12
Output line: 4.585

Input line: What would you report for COc1c(C)cc(NC(=O)c2nn(Cc3ccc(F)cc3)c3c2CN(C(=O)c2ccc[nH]2)C[C@]3(C)C(N)=O)cc1C ?
Output line: 107.405

Input line: What would you report for N#CC1(c2ccccn2)CCN(Cc2cc(C(=O)N3CCCC3)c(=O)n3ccccc23)CC1 ?
Output line: 103.159

Input line: What would you report for O=C(NNS(=O)(=O)c1ccccc1F)c1cc(F)cc(-c2ccccn2)c1 ?
Output line: 69.0433

Input line: What would you report for CN(C)[C@@H]1CCN(c2cc(-c3ccccc3)nc3ccnn23)C1 [(R)-ZINC-3573] ?
Output line: 97.984

Input line: What would you report for Cn1nc(C(F)(F)F)cc1-c1cnc(N2CCc3cc(S(=O)(=O)Nc4c(F)cc(Cl)cc4F)cc(N4CCCC4=O)c32)nc1 ?
Output line: 86.7802

Input line: What would you report for CC#CC(=O)N1CCC[C@H]1c1nc(-c2ccc(C(=O)Nc3ccccn3)cc2)c2c(N)nccn12 ?
Output line: 96.3915

Input line: What would you report for CC[C@H](CC(=O)O)n1c(=O)c2ncccc2n(Cc2cn(C)c3cc(C)cc(C)c23)c1=O ?
Output line: 108.303

Input line: What would you report for CC(C)(O)CNc1ncc(-c2ccnc(Nc3ccnc(Cl)c3)n2)c(CC2CC2)n1 ?
Output line: 67.8279

Input line: What would you report for Clc1cccc(-c2nnnn2Cc2cccnc2)c1Cl ?
Output line: 106.259

Input line: What would you report for C=CC(=O)Nc1ccc2[nH]c(=O)n(C3CCN(Cc4ccc(-c5nc6cc[nH]c(=O)c6cc5-c5ccccc5)cc4)CC3)c2c1 ?
Output line: 47.6492

Input line: What would you report for O=C(N1CCS(=O)(=O)CC1)N1C[C@H](c2ccc(OC(F)(F)F)cc2)C[C@H](c2nc(C3CC3)no2)C1 ?
Output line: 61.9652

Input line: What would you report for CC(=O)Nc1cccc(-n2c(=O)n(C3CC3)c(=O)c3c(Nc4ccc(I)cc4F)n(C)c(=O)c(C)c32)c1 ?
Output line: 2.051

Input line: What would you report for CCn1c(-c2nc3cc(C(=O)N4CCCC(N)C4)ccc3n2C)cc2ccccc21.Cl (stereo unspecified) ?
Output line: 133.825

Input line: What would you report for C[C@H]1CCCN1Cc1nc2cc(NC(=O)c3ccc4cnccc4c3)ccc2[nH]1 ?
Output line: 98.7446

Input line: What would you report for COc1cc(OC)cc(-c2noc(N3CCN(C)C4(CCN(c5ccnc(C)c5)CC4)C3)n2)c1 ?
Output line: 136.59

* * *

Tested on: Colon cancer organoid
PROCEDURE DETAILS: Identification of compartment-specific drug sensitivities in O20 CRC organoid-stroma F20 CAF co-cultures. Organoid is transduced with Lucferase2-P2A-EGFP lentivirus, fibroblast with Renilla-dsRed lentivirus. Dual-Glo Luciferase assay is used to report viability data.
Assay type: functional, Homo sapiens
Design: dose or concentration left out as unconfirmed
CONDITIONS USED: Transduced with Renilla-dsRed lentivirus
VALUE KIND: Cell Viability (%)
// note: answer is a bare numeric in %

Input line: Record request: Cell Viability value, item COc1cc2c(NC3CCN(C(C)C)CC3)nc(N3CCC(F)(F)CC3)nc2cc1OCCCN1CCCC1
Output line: 132.743

Input line: What would you report for C[C@H](NC(=O)Nc1cc2[nH]ncc2c(CO)n1)c1ccccn1 ?
Output line: 124.126

Input line: What would you report for CN(C)CCCOc1ccc(-c2cc(NCCCn3cccn3)nc(S(C)(=O)=O)n2)cc1 ?
Output line: 126.832

Input line: What would you report for CC(=O)C1=C(C)N(c2cccc(C(F)(F)F)c2)C(=O)N[C@H]1c1ccc(C#N)nc1 ?
Output line: 107.791

Input line: What would you report for COc1cccc2c1C(=O)c1c(O)c3c(c(O)c1C2=O)CC(O)(C(=O)CO)CC3OC1CC(N)C(O)C(C)O1.Cl (stereo not drawn) ?
Output line: 237.178

Input line: What would you report for CCCCN(CCCC)C(=O)CN1C[C@@H](c2cc(OC)c3c(c2)OCO3)[C@H](C(=O)O)[C@H]1CC(C)(C)CCC ?
Output line: 97.2502

Input line: What would you report for COCCc1ccc(-c2c(C)nc3c(N4CCOCC4)ccnn23)cn1 ?
Output line: 102.271

Input line: What would you report for O=C(NOC[C@H](O)CO)c1ccc(F)c(F)c1Nc1ccc(I)cc1F ?
Output line: 83.5811

Input line: What would you report for C[C@@H]1CCNC(=O)c2cc3ccc(C(=O)Nc4nc5ccccc5n4CCCN(C)C)cc3n21 ?
Output line: 147.158

Input line: What would you report for CCNC(=O)c1cc2c(N3CCOCC3C)ccnc2[nH]1 (stereo not drawn) ?
Output line: 100.256

Input line: What would you report for Cc1c(N2CCNCC2)nc2ccc(Br)cc2c1C(=O)NC[C@H](CCC(=O)O)c1ccccc1Cl ?
Output line: 79.2483

Input line: What would you report for Nc1nc(NCc2ccccc2)nc(-c2cccc(CO)c2)n1 ?
Output line: 66.6285

Input line: What would you report for O=C(NCCCN1CCOC1=O)c1cnc(NCc2cc(Br)ccc2Br)nc1NC1CCCC1 ?
Output line: 94.0994

Input line: What would you report for CCOCCn1cc(C(=O)Nc2ccc(-n3nc(-c4cccnc4)cc3C(F)(F)F)cn2)ccc1=O ?
Output line: 148.205

Input line: What would you report for Cc1ncsc1-c1ccc(CNC(=O)[C@@H]2C[C@@H](O)CN2C(=O)[C@@H](NC(=O)CCCCNC(=O)c2ccc(-c3ccc(N4CCN(C)CC4)c(NC(=O)c4c[nH]c(=O)cc4C(F)(F)F)c3)cc2)C(C)(C)C)cc1 ?
Output line: 86.697

Input line: What would you report for NS(=O)(=O)c1cc(NC(=O)Cc2ccccc2)ccc1Oc1cccc(Cl)c1 ?
Output line: 86.996

Input line: What would you report for COc1c(C)cc(NC(=O)c2nn(Cc3ccc(F)cc3)c3c2CN(C(=O)c2ccc[nH]2)C[C@]3(C)C(N)=O)cc1C ?
Output line: 95.1299

Input line: What would you report for CSc1cccnc1N1CCN(Cc2nc3ccccc3[nH]2)CC1 ?
Output line: 98.3481

Input line: What would you report for CCNC(=O)c1cc2c(-c3cc(C(C)(C)O)ccc3Oc3c(C)cc(F)cc3C)cn(C)c(=O)c2[nH]1 ?
Output line: 215.224

Input line: What would you report for Cc1nc(NC(=O)N2CCC[C@H]2C(N)=O)sc1-c1ccnc(C(C)(C)C(F)(F)F)c1 ?
Output line: 99.8659

Input line: What would you report for C[C@H](c1ccnc(Nc2nc3ccc(-c4cc(N(C)C)ncn4)cc3[nH]2)c1)N1CCN(C(=O)CC(F)(F)F)CC1 ?
Output line: 125.86

Input line: What would you report for COc1cc(-c2cn([C@H]3CCc4ccccc4N(CC(F)(F)F)C3=O)nn2)ccc1-n1ccc(C)n1 ?
Output line: 119.033

Input line: What would you report for CC(C)Oc1ccc(-c2c[nH]cc2CN(C)CCN)cc1 ?
Output line: 252.195

Input line: What would you report for N#CC1(c2ccccn2)CCN(Cc2cc(C(=O)N3CCCC3)c(=O)n3ccccc23)CC1 ?
Output line: 109.338

Input line: What would you report for O=C1CCc2cc(Nc3cc(OC4CCOCC4)c([N+](=O)[O-])cc3Cl)ccc2N1 ?
Output line: 114.972

Input line: What would you report for Cc1c(C(=O)O)cc(-c2ccc(C3CCNCC3)cc2)c2ccc(-c3ccc(C(F)(F)F)cc3)cc12.Cl ?
Output line: 99.1911

Input line: What would you report for O=C(NNS(=O)(=O)c1ccccc1)c1cc(-c2ccnnc2)ccc1F ?
Output line: 126.08

Input line: What would you report for CO[C@H]1CC[C@H](CNc2ccc(S(=O)(=O)NC(=O)c3ccc(N4CCN(CC5=C(c6ccc(Cl)cc6)CC(C)(C)CC5)CC4)cc3Oc3cnc4[nH]ccc4c3)cc2[N+](=O)[O-])CC1 ?
Output line: 159.244

Input line: What would you report for O=C(NC[C@H](O)CN1CCc2ccccc2C1)c1ccnc(NC2CCC2)c1 ?
Output line: 143.569

Input line: What would you report for CCOc1cc2ncc(C#N)c(Nc3ccc(OCc4cccc(F)c4)c(Cl)c3)c2cc1NC(=O)/C=C/CN(C)C ?
Output line: 47.1207

Input line: What would you report for Cc1cc2c(-c3ccco3)cnc(N[C@@H]3CCN(C)C[C@H]3C(=O)NC3CCCCC3)c2[nH]c1=O ?
Output line: 125.83

Input line: What would you report for C=CC(=O)Nc1ccc2[nH]c(=O)n(C3CCN(Cc4ccc(-c5nc6cc[nH]c(=O)c6cc5-c5ccccc5)cc4)CC3)c2c1 ?
Output line: 149.193

Input line: What would you report for CC(C)NC(=O)N1CC[C@H](NC2=Nc3cc(F)ccc3N(CC(F)F)c3ccc(Cl)cc32)C1 ?
Output line: 142.836
